Data origin: paper PMC11784839

# SYSTEM: tau (Homo sapiens)
# TEST DETAILS: MCE Phenols Library screening, tau biosensor cell seeding assay (AvZ)
# Assay type: cell-based
# RUN PARAMETERS: Z score, replicate 2

{"COMPOUND": "C=C(C)[C@H](CC=C(C)C)Cc1c(O)cc(OC)c2c1O[C@H](c1ccc(O)cc1O)[C@@H](O)C2=O", "Z Repl 2": -0.398}
{"COMPOUND": "Cc1cc(=O)oc2cc(O)cc(O)c12 [5,7-Dihydroxy-4-methylcoumarin]", "Z Repl 2": -0.301}
{"COMPOUND": "CC(C)=CCc1cc2c(=O)cc(-c3ccc(O)cc3)oc2cc1O", "Z Repl 2": 0.525}
{"COMPOUND": "O=c1c(O)c(-c2ccccc2)oc2cc(O)cc(O)c12", "Z Repl 2": -0.203}

---

In this section we review reported av Z values for a set of molecules.
# SYSTEM: tau (Homo sapiens, UniProt P10636)
# Sequence (P10636 623-695 limits assumed): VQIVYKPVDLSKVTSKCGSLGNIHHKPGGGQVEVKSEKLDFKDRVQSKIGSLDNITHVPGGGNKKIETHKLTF
# TEST DETAILS: MCE Phenols Library screening, tau biosensor cell seeding assay (AvZ)
# Assay type: cell-based
# RUN PARAMETERS: average Z score of the two replicates, MCE Phenols Library screen
ENDPOINT LABEL: av Z

{"MOLECULE": "COc1c(O)cc2oc(-c3ccc(O)c(O)c3)cc(=O)c2c1O", "SYSTEM": "tau (Homo sapiens, UniProt P10636)", "ENDPOINT LABEL": "av Z", "RECORDED VALUE": -0.768}
{"MOLECULE": "COc1cc(-c2oc3cc(O)cc(O)c3c(=O)c2O[C@@H]2O[C@H](CO[C@@H]3O[C@@H](C)[C@H](O)[C@@H](O)[C@H]3O)[C@@H](O)[C@H](O)[C@H]2O)ccc1O [Narcissin]", "SYSTEM": "tau (Homo sapiens, UniProt P10636)", "ENDPOINT LABEL": "av Z", "RECORDED VALUE": -0.202}
{"MOLECULE": "Cl.Oc1ccc(CC2NCCc3cc(O)c(O)cc32)cc1 (stereo not shown) [Higenamine (hydrochloride)]", "SYSTEM": "tau (Homo sapiens, UniProt P10636)", "ENDPOINT LABEL": "av Z", "RECORDED VALUE": -0.649}
{"MOLECULE": "COc1ccc(CCC(=O)c2c(O)cc(O[C@@H]3O[C@H](CO)[C@@H](O)[C@H](O)[C@H]3O[C@@H]3O[C@@H](C)[C@H](O)[C@@H](O)[C@H]3O)cc2O)cc1O [Neohesperidin dihydrochalcone]", "SYSTEM": "tau (Homo sapiens, UniProt P10636)", "ENDPOINT LABEL": "av Z", "RECORDED VALUE": -0.198}
{"MOLECULE": "O=c1c(O)c(-c2cc(O)c(O)c(O)c2)oc2cc(O)ccc12", "SYSTEM": "tau (Homo sapiens, UniProt P10636)", "ENDPOINT LABEL": "av Z", "RECORDED VALUE": -0.665}
{"MOLECULE": "O=c1c(O[C@@H]2OC[C@H](O)[C@H](O)[C@H]2O)c(-c2ccc(O)c(O)c2)oc2cc(O)cc(O)c12", "SYSTEM": "tau (Homo sapiens, UniProt P10636)", "ENDPOINT LABEL": "av Z", "RECORDED VALUE": -0.225}
{"MOLECULE": "COc1ccc2c(c1O)-c1c(OC)c(OC)cc3c1[C@H](C2)N(C)CC3", "SYSTEM": "tau (Homo sapiens, UniProt P10636)", "ENDPOINT LABEL": "av Z", "RECORDED VALUE": -0.55}

---

In this section we review reported Z Repl 2 values for a set of compounds.
# SYSTEM: tau (Homo sapiens, UniProt P10636)
# TEST DETAILS: MCE Phenols Library screening, tau biosensor cell seeding assay (AvZ)
# Type: cell-based
# RUN PARAMETERS: Z score, replicate 2

{"COMPOUND": "O=C(O)c1cc(O)c2cccc(O)c2n1", "Z Repl 2": 1.586}
{"COMPOUND": "O=c1c(-c2ccc(O)cc2)coc2cc(O)cc(O)c12", "Z Repl 2": 0.231}
{"COMPOUND": "COC(=O)[C@@H](Cc1ccc(O)c(O)c1)OC(=O)/C=C/c1ccc(O)c(O)c1 [Methyl rosmarinate]", "Z Repl 2": -0.521}
{"COMPOUND": "CC(=O)OC(C)(C)CC(=O)O[C@H](CC=C(C)C)C1=CC(=O)c2c(O)ccc(O)c2C1=O", "Z Repl 2": 0.548}
{"COMPOUND": "O=c1cc(-c2ccc(O)cc2)oc2cc(O)c([C@@H]3O[C@H](CO)[C@@H](O)[C@H](O)[C@H]3O[C@@H]3OC[C@H](O)[C@H](O)[C@H]3O)c(O)c12 [Isovitexin 2''-O-arabinoside]", "Z Repl 2": -0.245}
{"COMPOUND": "COc1cc(-c2cc(=O)c3c(O)cc(O)cc3o2)ccc1O", "Z Repl 2": -0.203}
{"COMPOUND": "COc1cc(C=O)cc(OC)c1O", "Z Repl 2": -0.778}
{"COMPOUND": "COc1cc2c(cc1O)CCN1Cc3c(ccc(OC)c3OC)CC21 (stereo not drawn)", "Z Repl 2": -0.524}
{"COMPOUND": "Oc1ccc([C@H]2Oc3cc(O)cc(O)c3C[C@H]2O)cc1 [(-)-Epiafzelechin]", "Z Repl 2": 0.182}
{"COMPOUND": "O=c1cc(-c2ccccc2)oc2c(O)c(O)ccc12 [7,8-Dihydroxyflavone]", "Z Repl 2": 0.928}
{"COMPOUND": "O=C(O)CCc1ccc(O)c(O)c1 [Dihydrocaffeic acid]", "Z Repl 2": -0.922}
{"COMPOUND": "COc1ccc(-c2cc(=O)c3c(O)cc(OC)cc3o2)cc1", "Z Repl 2": -0.073}

---

# SYSTEM: tau (Homo sapiens, UniProt P10636)
# TEST DETAILS: MCE Phenols Library screening, tau biosensor cell seeding assay (AvZ)
# Assay type: cell-based
# RUN PARAMETERS: average Z score of the two replicates, MCE Phenols Library screen
In this section we review reported av Z values for a set of compounds.

{"COMPOUND": "Oc1cc(O)c2c(c1)O[C@@]1(c3ccc(O)c(O)c3)Oc3cc(O)c4c(c3[C@@H]2[C@H]1O)O[C@H](c1ccc(O)c(O)c1)[C@H](O)C4 [Procyanidin A2]", "av Z": -0.725}
{"COMPOUND": "O=c1cc(-c2ccc(O)cc2)oc2c([C@@H]3O[C@H](CO)[C@@H](O)[C@H](O)[C@H]3O)c(O)c([C@@H]3OC[C@@H](O)[C@H](O)[C@H]3O)c(O)c12 [Vicenin-1]", "av Z": -0.39}
{"COMPOUND": "COc1cc2oc3cc(O)c(OC)c(CC=C(C)C)c3c(=O)c2c(O)c1CC=C(C)C [beta-Mangostin]", "av Z": -0.217}
{"COMPOUND": "COc1ccc(-c2cc(=O)c3c(O)c(OC)c(O)c(OC)c3o2)cc1 [Nevadensin]", "av Z": -0.329}

---

# SYSTEM: tau (Homo sapiens, UniProt P10636)
# TEST DETAILS: MCE Phenols Library screening, tau biosensor cell seeding assay (AvZ)
# Type: cell-based
# RUN PARAMETERS: Z score, replicate 1
In this section we review reported Z repl 1 values for a set of compounds.
ENDPOINT LABEL: Z repl 1

{"COMPOUND": "COc1ccc(-c2cc(=O)c3c(O)cc(O)c(-c4cc(-c5cc(=O)c6c(O)cc(OC)cc6o5)ccc4OC)c3o2)cc1", "RECORDED VALUE": 0.092}
{"COMPOUND": "COc1cc(O)c2c(=O)cc(-c3ccc(O)c(O)c3)oc2c1 [Hydroxygenkwanin]", "RECORDED VALUE": -0.407}
{"COMPOUND": "OC[C@H]1O[C@@H](Oc2cc3c(O)cc(O)cc3[o+]c2-c2ccc(O)c(O)c2)[C@H](O)[C@@H](O)[C@@H]1O.[Cl-] [Kuromanin (chloride)]", "RECORDED VALUE": -0.084}

---

In this section we review reported raw data 1 values for a set of compounds.
# SYSTEM: tau (Homo sapiens, UniProt P10636)
# TEST DETAILS: MCE Phenols Library screening, tau biosensor cell seeding assay (AvZ)
# Assay type: cell-based
# RUN PARAMETERS: puncta, replicate 1

{"COMPOUND": "COc1c(O)cc2c(c1O)[C@@H]1O[C@H](CO)[C@@H](O)[C@H](O)[C@H]1OC2=O [Bergenin]", "SYSTEM": "tau (Homo sapiens, UniProt P10636)", "raw data 1": 29646.8}
{"COMPOUND": "O=C1c2cccc(O)c2C(=O)c2c(O)cccc21 [Danthron]", "SYSTEM": "tau (Homo sapiens, UniProt P10636)", "raw data 1": 13720.6}
{"COMPOUND": "COc1ccc(-c2cc(=O)c3c(O)cc(OC)cc3o2)cc1 [7,4'-Di-O-methylapigenin]", "SYSTEM": "tau (Homo sapiens, UniProt P10636)", "raw data 1": 27207.6}
{"COMPOUND": "CC(=O)OC(C)(C)CC(=O)O[C@H](CC=C(C)C)C1=CC(=O)c2c(O)ccc(O)c2C1=O [Beta-Acetoxyisovalerylshikonin]", "SYSTEM": "tau (Homo sapiens, UniProt P10636)", "raw data 1": 23464.1}
